Provenance of the data: the nanobody polyreactivity screen of Harvey et al. (2022)

assaySummary: yeast display, Sf9 membrane polyspecificity reagent, FACS + sequencing; frameworks hold sequencing errors

inputSequence: QVQLVESGGGLVQAGGSLRLSCADSGSTFGKNAMGWYRQAPGKDRELVAAITRRGVSTNYADSEKGRFTISRDNAKNTVYLQMNSLKPEDTAVYYCARGSELGYYAWVYYLGQGTQVTVSS
polyreactivity (PSR sort gate): high polyreactivity

inputSequence: QVQLVESGGGLVQAGGSLRLSCAASGSIFRAYAMGWYRQAPGKERELVATIRKSGGSTYYADSVKGRFTISRDNAKNTVYLQMNSLKPEDTAVYYCAARTIRYVNFYYWGQGTQVTVSS
polyreactivity (PSR sort gate): high polyreactivity

inputSequence: QVQLVESGGGLVQAGGILRLSCAASGSIYSGYAMGWYIQAPAKEREFVAAITSTSGSTYYADSVKVRFTISRDNAKNSVYLQMNSLKPEDTAVYYWAGYRYRYYSYDSWGQGTHVTVSS
polyreactivity (PSR sort gate): high polyreactivity

###

assaySummary: yeast display, Sf9 membrane polyspecificity reagent, FACS + sequencing; frameworks hold sequencing errors
readoutKind: polyreactivity (PSR sort gate)

// worked examples, polyreactivity (PSR sort gate) included
inputSequence: QVQLVESGGGLVQAGGSLRLSCAASGRTFYDYAMGWYRQAPGKERELVAAISRRAGSTYYADSVKGRFTISRDNAKNTVYLQMNSLKPEDTAVYYCAAAYYRRWWRGHHYAFDYWGQGTQVTVSS
readoutKind: polyreactivity (PSR sort gate)
endpointResult: high polyreactivity

inputSequence: QVQLVESGGGLVQAGGSLRLSCAASGRIFRFYAMGWYRPAPGKERELVAAISSRGGSTYYADSVKGRFTISRDNAKNTDYFQMNSLKPEDTAVYYCNAYGSTSQMDYWGQGTQVTVSS
readoutKind: polyreactivity (PSR sort gate)
endpointResult: high polyreactivity

inputSequence: QVQLVESGGGLVQAGGSLRLSCAASGSTFYKYVMGWYRQAPGKERELVAAISWSGGSTYYADSVKGRFTISRDNAKNTVYLQMNSLKPEDPAVYYCAAETYAYLFHTYDYWGQGTQVTVSS
readoutKind: polyreactivity (PSR sort gate)
endpointResult: low polyreactivity

inputSequence: QVQLVESGGGLVQAGGSLRLSCAASGYIFGINDMAWYIQAPGKERELVAAIRISGGSTYYADSVKGRFTISRDNAKNTVYLQMNSLKPEDTAVYYCNAQDDGGLEWRYEEDDYWGQGTQVTVSS
readoutKind: polyreactivity (PSR sort gate)
endpointResult: low polyreactivity

inputSequence: QVQLVESGVGLVKAGGSLRLSCAASGITFGFYAMGWYRQAPGKDRELVASISSRGGSTNYADSVKGRFTISRDNAKNTVYLQMNSLKPEDTAVYYCAVAWLVRGGGGRRTFYSWGQGTQVTVSS
readoutKind: polyreactivity (PSR sort gate)
endpointResult: high polyreactivity

(Q) Param item = QVQLQESGGGLVQAGGSLRLTCAASGTIFRFRYMGWPRQAPGKERELVAGINGGTTTYYADSVIGRFTISRDNAKNTVYLQRNSLKPDDTAVYNCAAGASRLTYYDYWGQGTQVTVSS ; retrieve measured polyreactivity (PSR sort gate).
(A) low polyreactivity

(Q) Likewise for QVQLVESGGGLVQAGGSLRLSCAASGFTYFQYAMGWYRQAPGKERELVAAITSGVSTNYADSVKGRFTISRDNAKNTVYLQMNSLKPEDTAVYYCAADPRYLQSWRGEFAGEYWGQGTQVTVSS ?
(A) low polyreactivity

(Q) Likewise for QVQLVESGGGLVQAGGSLRLSCAASGSTFAFYAMGWYRQAPGKERELVAAISSSGARTYYADSVKGRFTLSRDNAKNTVYLQMNSLKPEDTAVYYCAAAFYRLYITSYYYWGQGTQVTVSS ?
(A) high polyreactivity

(Q) Likewise for QVQLVESGGGLVQAGGSLRLSCAASGITFVLNALGWYRQAPRKERELVARISWSTGSTYYADSVKGRFTISRDNAKNTVYLQMNSLKPEDTAVYYCAVDYNVQSLYVVVEGEYWGQGTQVTVSS ?
(A) low polyreactivity

(Q) Likewise for QVQLVESGGGLVQAGGSLRLSCAASGLTFRYNAMGWYRQAPGKERELVARISRNGGRTYYADSVKGRFTISRDNAKNTVYLQMNSLKPEDTAVYYCNVVYFVTTSPGYDYWGQGTQVTVSS ?
(A) high polyreactivity

(Q) Likewise for QVQLVESGGGLVQAGGSLRLSCAASGLIFSAYDMGWYRQAPGKERELVASITSGGSTYYADSVKGRFTISRDNAKNTVYLQMNSLKPEDTAVYYCNADGGWYQYRWRYIEGEYWGQGTQVTLSS ?
(A) low polyreactivity
